# test-summary: Drug uptake in NSG mouse serum at 20 mg/kg, ip administered as single dose and measured at 24 hrs by HPLC-MS/MS analysis
# Format: ADME, organism-based
# condition: read-out: Drug uptake
measured-property: concentration at 24 h

compound_string=CC(C)(C)c1ccc(CN(C(=O)CN(Cc2c(F)c(F)c(F)c(F)c2F)S(=O)(=O)c2ccc(F)cc2)c2ccc(C(=O)NO)cc2)cc1 measured_property="concentration at 24 h" result="265 ng/mL"

---

# test-summary: Drug uptake in NSG mouse serum at 20 mg/kg, ip administered as single dose and measured at 4 hrs by HPLC-MS/MS analysis
# Format: ADME, organism-based
# condition: read-out: Drug uptake
measured-property: concentration at 4 h (ng/mL)

compound_string=CC(C)(C)c1ccc(CN(C(=O)CN(Cc2c(F)c(F)c(F)c(F)c2F)S(=O)(=O)c2ccc(F)cc2)c2ccc(C(=O)NO)cc2)cc1 measured_property="concentration at 4 h" quantity_unit=ng/mL measured_number=3660

---

# test-summary: Half life in NSG mouse at 20 mg/kg, ip administered as single dose by HPLC-MS/MS analysis
# Type: ADME, organism-based
# condition: in vivo
measured-property: half-life (h)

compound_string=CC(C)(C)c1ccc(CN(C(=O)CN(Cc2c(F)c(F)c(F)c(F)c2F)S(=O)(=O)c2ccc(F)cc2)c2ccc(C(=O)NO)cc2)cc1 quantity_unit=h measured_number=5

---

# test-summary: Drug uptake in NSG mouse serum at 20 mg/kg, ip administered as single dose and measured at 0.5 hrs by HPLC-MS/MS analysis
# Format: ADME, organism-based
# condition: read-out: Drug uptake
measured-property: concentration at 0.5 h (ng/mL)

compound_string=CC(C)(C)c1ccc(CN(C(=O)CN(Cc2c(F)c(F)c(F)c(F)c2F)S(=O)(=O)c2ccc(F)cc2)c2ccc(C(=O)NO)cc2)cc1 quantity_unit=ng/mL measured_number=7450

---

# test-summary: Drug uptake in NSG mouse serum at 20 mg/kg, ip administered as single dose and measured at 1 hr by HPLC-MS/MS analysis
# Assay type: ADME, organism-based
# condition: read-out: Drug uptake
measured-property: concentration at 1 h (ng/mL)

compound_string=CC(C)(C)c1ccc(CN(C(=O)CN(Cc2c(F)c(F)c(F)c(F)c2F)S(=O)(=O)c2ccc(F)cc2)c2ccc(C(=O)NO)cc2)cc1 quantity_unit=ng/mL measured_number=5400

---

# test-summary: Bioavailability in NSG mouse at 20 mg/kg, ip administered as single dose by HPLC-MS/MS analysis
# Type: ADME, organism-based
# condition: in vivo
measured-property: bioavailability (%)

compound_string=CC(C)(C)c1ccc(CN(C(=O)CN(Cc2c(F)c(F)c(F)c(F)c2F)S(=O)(=O)c2ccc(F)cc2)c2ccc(C(=O)NO)cc2)cc1 measured_property=bioavailability measured_number=100

---

# Tested on: Panc1005
# test-summary: Cytotoxicity against human Panc 10.05 cells assessed as reduction in tumor spheroid area after 72 hrs in presence of human CAF19 cells by Alamar Blue assay
# Format: functional, cell-based
# condition: Panc1005, 72 h
pIC50: −log10 of the molar value.
measured-property: pIC50

compound_string=CC(C)(C)c1ccc(CN(C(=O)CN(Cc2c(F)c(F)c(F)c(F)c2F)S(=O)(=O)c2ccc(F)cc2)c2ccc(C(=O)NO)cc2)cc1 measured_property=pIC50 measured_number=6.03
